# ASSAY_TEXT: AUC (0 to last) in C57BL/6 mouse at 10 mg/kg, ip measured upto 24 hrs
# Format: ADME, organism-based
# Parameters: route intraperitoneal, dose 10 mg/kg, time <=24
# DETAILS: in vivo
READOUT: AUC(0-t) at 24 h

COMPOUND: O=C(Nc1ccc(Br)cc1)NC(C(=O)Nc1cccnc1)C1CCCC1 (stereo unspecified)
RESULT: 69000 ng·h/mL

###

# ASSAY_TEXT: MRT (0 to last) in C57BL/6 mouse at 10 mg/kg, ip measured upto 24 hrs
# Format: ADME, organism-based
# DETAILS: in vivo
READOUT: MRT last at 24 h (h)

COMPOUND: O=C(Nc1ccc(Br)cc1)NC(C(=O)Nc1cccnc1)C1CCCC1 (stereo unspecified)
RESULT: 2.41

###

# ASSAY_TEXT: Distribution coefficient between octanol and PBS, log D of compound in pH 7.4 at 100 uM incubated for 12 hrs by LC-MS/MS analysis
# Type: physicochemical

MOLECULE: Cc1nn(C)cc1NC(=O)C1(NC(=O)Nc2ccc(Br)cc2)CCCC1
COMPARISON_OPERATOR: =
logD at 12 h, 100 µM: 3.1

MOLECULE: O=C(CNC(=O)Nc1ccc(Br)cc1)Nc1cccnc1
COMPARISON_OPERATOR: =
logD at 12 h, 100 µM: 3.6

MOLECULE: O=C(Nc1ccc(Br)cc1)NC1(C(=O)Nc2cncnc2)CCCC1
COMPARISON_OPERATOR: =
logD at 12 h, 100 µM: 3.7

MOLECULE: O=C(Nc1ccc(Br)cc1)N[C@@H](CC1CC1)C(=O)Nc1cccnc1
COMPARISON_OPERATOR: >
logD at 12 h, 100 µM: 4

MOLECULE: Cc1nn(C)cc1NC(=O)C(NC(=O)Nc1ccc(Br)cc1)C1CCCC1 (stereo unspecified)
COMPARISON_OPERATOR: >
logD at 12 h, 100 µM: 4

MOLECULE: O=C(Nc1ccc(Br)cc1)NC(C(=O)Nc1cccnn1)C1CCCC1 (stereo unspecified)
COMPARISON_OPERATOR: >
logD at 12 h, 100 µM: 4

###

# ASSAY_TEXT: Distribution coefficient between octanol and PBS, log D of compound in pH 7.4 at 100 uM incubated for 12 hrs by LC-MS/MS analysis
# Type: physicochemical

COMPOUND: Cc1ccc(NC(=O)C2(NC(=O)Nc3ccc(Br)cc3)CCCC2)cn1
COMPARISON_OPERATOR: =
logD at 12 h, 100 µM: 3.9

COMPOUND: O=C(Nc1ccc(Br)cc1)NC(C(=O)NC1CCOCC1)C1CCCC1 (stereo unspecified)
COMPARISON_OPERATOR: >
logD at 12 h, 100 µM: 4

COMPOUND: O=C(Nc1ccc(Br)cc1)NC(C(=O)NC1COC1)C1CCCC1 (stereo unspecified)
COMPARISON_OPERATOR: =
logD at 12 h, 100 µM: 4.3

COMPOUND: O=C(Nc1ccc(Br)cc1)NC1(C(=O)Nc2ccc(Cl)nc2)CCCC1
COMPARISON_OPERATOR: =
logD at 12 h, 100 µM: 4.4

COMPOUND: CN1CCC(NC(=O)C2(NC(=O)Nc3ccc(Br)cc3)CCCC2)CC1
COMPARISON_OPERATOR: =
logD at 12 h, 100 µM: 1.2

COMPOUND: O=C(Nc1ccc(Br)cc1)NC1(C(=O)NCc2nn[nH]n2)CCCC1
COMPARISON_OPERATOR: =
logD at 12 h, 100 µM: 1.1

COMPOUND: CC(C)C[C@H](NC(=O)Nc1ccc(Br)cc1)C(=O)Nc1cccnc1
COMPARISON_OPERATOR: =
logD at 12 h, 100 µM: 4.2

COMPOUND: O=C(Nc1ccc(Br)cc1)NC(C(=O)Nc1cncnc1)C1CCCC1 (stereo unspecified)
COMPARISON_OPERATOR: =
logD at 12 h, 100 µM: 4

COMPOUND: Cc1cncc(NC(=O)C2(NC(=O)Nc3ccc(Br)cc3)CCCC2)c1
COMPARISON_OPERATOR: =
logD at 12 h, 100 µM: 3.7

COMPOUND: O=C(Nc1ccc(Br)cc1)NC1(C(=O)Nc2cccnc2)CCCC1
COMPARISON_OPERATOR: =
logD at 12 h, 100 µM: 4.1

COMPOUND: CN1CCC(NC(=O)C(NC(=O)Nc2ccc(Br)cc2)C2CCCC2)CC1 (stereo unspecified)
COMPARISON_OPERATOR: =
logD at 12 h, 100 µM: 2.5

###

# ASSAY_TEXT: Metabolic stability in mouse liver microsomes assessed as half life at 1 uM incubated for 30 mins by LC-MS/MS analysis
# Type: ADME, Microsome
Each entry below carries its reported log10 half-life at 1 µM.
READOUT: log10 half-life at 1 µM (log10 of the value in h)

COMPOUND: O=C(CNC(=O)Nc1ccc(Br)cc1)Nc1cccnc1
log10 half-life at 1 µM: -0.44

COMPOUND: Cc1ccc(NC(=O)C2(NC(=O)Nc3ccc(Br)cc3)CCCC2)cn1
log10 half-life at 1 µM: -0.22

COMPOUND: O=C(Nc1ccc(Br)cc1)NC(C(=O)NC1CCOCC1)C1CCCC1 (configuration not stated)
log10 half-life at 1 µM: 0.24

COMPOUND: CN1CCC(NC(=O)C(NC(=O)Nc2ccc(Br)cc2)C2CCCC2)CC1 (configuration not stated)
log10 half-life at 1 µM: 0.90

COMPOUND: O=C(Nc1ccc(Br)cc1)NC1(C(=O)Nc2cncnc2)CCCC1
log10 half-life at 1 µM: 0.24

COMPOUND: O=C(Nc1ccc(Br)cc1)NC(C(=O)Nc1cccnc1)C1CC1 (configuration not stated)
log10 half-life at 1 µM: -0.17

COMPOUND: O=C(Nc1ccc(Br)cc1)N[C@@H](CC1CC1)C(=O)Nc1cccnc1
log10 half-life at 1 µM: -0.13

COMPOUND: O=C(Nc1ccc(Br)cc1)NC1(C(=O)Nc2ccc(Cl)nc2)CCCC1
log10 half-life at 1 µM: -0.27

COMPOUND: CN1CCC(NC(=O)C2(NC(=O)Nc3ccc(Br)cc3)CCCC2)CC1
log10 half-life at 1 µM: 0.51

COMPOUND: O=C(Nc1ccc(Br)cc1)NC1(C(=O)Nc2cccnc2)CCCC1
log10 half-life at 1 µM: 0.12

COMPOUND: O=C(Nc1ccc(Br)cc1)NC(CC1CCCCC1)C(=O)Nc1cccnc1 (configuration not stated)
log10 half-life at 1 µM: -0.74

COMPOUND: O=C(Nc1ccc(Br)cc1)NC(C(=O)Nc1cncnc1)C1CCCC1 (configuration not stated)
log10 half-life at 1 µM: 0.18

COMPOUND: O=C(Nc1ccc(Br)cc1)NC(C(=O)Nc1cccnc1)C1CCOCC1 (configuration not stated)
log10 half-life at 1 µM: 0.18

COMPOUND: O=C(Nc1ccc(Br)cc1)NC(C(=O)Nc1cccnc1)C1CCCC1 (configuration not stated)
log10 half-life at 1 µM: -0.26

COMPOUND: O=C(Nc1ccc(Br)cc1)NC(C(=O)NCC1CCCO1)C1CCCC1 (configuration not stated)
log10 half-life at 1 µM: -0.38

COMPOUND: O=C(Nc1ccc(Br)cc1)NC1(C(=O)NCc2nn[nH]n2)CCCC1
log10 half-life at 1 µM: 0.84

COMPOUND: O=C(Nc1ccc(Br)cc1)NC(C(=O)Nc1cccnn1)C1CCCC1 (configuration not stated)
log10 half-life at 1 µM: -0.74

COMPOUND: CC(C)n1cc(NC(=O)C2(NC(=O)Nc3ccc(Br)cc3)CCCC2)cn1
log10 half-life at 1 µM: 0.18

COMPOUND: Cc1nn(C)cc1NC(=O)C1(NC(=O)Nc2ccc(Br)cc2)CCCC1
log10 half-life at 1 µM: 0.58

COMPOUND: O=C(Nc1ccc(Br)cc1)NC1(C(=O)Nc2ccccn2)CCCC1
log10 half-life at 1 µM: -0.82

COMPOUND: CC(C)C[C@H](NC(=O)Nc1ccc(Br)cc1)C(=O)Nc1cccnc1
log10 half-life at 1 µM: 0.03

###

# ASSAY_TEXT: Cmax in C57BL/6 mouse at 10 mg/kg, ip measured upto 24 hrs
# Type: ADME, organism-based
# Set-up: route intraperitoneal, dose 10 mg/kg, time <=24
# DETAILS: in vivo
READOUT: Cmax (ng/mL)

COMPOUND: O=C(Nc1ccc(Br)cc1)NC(C(=O)Nc1cccnc1)C1CCCC1 (stereo unspecified)
RESULT: 31900

###

# ASSAY_TEXT: Distribution coefficient between octanol and PBS, log D of compound in pH 7.4 at 100 uM incubated for 12 hrs by LC-MS/MS analysis
# Format: physicochemical
READOUT: logD at 12 h, 100 µM

COMPOUND: O=C(Nc1ccc(Br)cc1)NC(C(=O)Nc1cccnc1)C1CCOCC1 (centres undefined)
COMPARISON_OPERATOR: =
RESULT: 4.7
--
COMPOUND: O=C(Nc1ccc(Br)cc1)NC(CC1CCCCC1)C(=O)Nc1cccnc1 (centres undefined)
COMPARISON_OPERATOR: >
RESULT: 4
--
COMPOUND: O=C(Nc1ccc(Br)cc1)NC1(C(=O)Nc2ccccn2)CCCC1
COMPARISON_OPERATOR: =
RESULT: 4.3
--
COMPOUND: O=C(Nc1ccc(Br)cc1)NC(C(=O)NCC1CCCO1)C1CCCC1 (centres undefined)
COMPARISON_OPERATOR: =
RESULT: 4.7
--
COMPOUND: CC(C)n1cc(NC(=O)C2(NC(=O)Nc3ccc(Br)cc3)CCCC2)cn1
COMPARISON_OPERATOR: =
RESULT: 4.2
--
COMPOUND: O=C(Nc1ccc(Br)cc1)NC(C(=O)NC1CNC1)C1CCCC1 (centres undefined)
COMPARISON_OPERATOR: =
RESULT: 1.6
--
COMPOUND: O=C(Nc1ccc(Br)cc1)NC(C(=O)Nc1cccnc1)C1CC1 (centres undefined)
COMPARISON_OPERATOR: >
RESULT: 4
--
COMPOUND: CC(C)n1cc(NC(=O)C(NC(=O)Nc2ccc(Br)cc2)C2CCCC2)cn1 (centres undefined)
COMPARISON_OPERATOR: >
RESULT: 4
--
COMPOUND: O=C(Nc1ccc(Br)cc1)NC(C(=O)Nc1cccnc1)C1CCCC1 (centres undefined)
COMPARISON_OPERATOR: >
RESULT: 4
